Where do the numbers come from? From patent US6878738B1.

# protocol_summary: Determination of the partition coefficient n-octanol/water (OECD Guideline No. 117)
# Type: physicochemical
# conditions_used: pH 7.5, read-out: Log P pH 7.5
test_readout: chromatographic logP
No unit in the answer, please; the number alone is enough.

Entry CC1(C)Cn2cc(-c3ccc(Cl)cc3)c(-c3ccccc3)c2C1=O , chromatographic logP reported as 5.1

Form field chromatographic logP, entry COC1c2c(-c3ccccc3)c(-c3ccc(Cl)cc3)c(C)n2CC1(C)C (centres unmarked) : 6.7

For COC1c2c(-c3ccccc3)c(-c3ccc(Cl)cc3)c(CC(=O)O)n2CC1(C)C (centres unmarked) the molecule record lists chromatographic logP as 1.7

Value of chromatographic logP reported for the molecule CC1(C)Cn2c(CC(=O)O)c(-c3ccc(Cl)cc3)c(-c3ccccc3)c2C1=O is 1.1

Entry CC1(C)Cc2c(-c3ccccc3)c(-c3ccc(Cl)cc3)c(CC(=O)O)n2C1 [ML 3000, reference compound] , chromatographic logP reported as 1.9

----------
# target_desc: 5-lipoxygenase (Homo sapiens)
# Construct: Human granulocytes are used as a source of 5-lipoxygenase; endogenous in cells
# Sequence (P09917 whole entry): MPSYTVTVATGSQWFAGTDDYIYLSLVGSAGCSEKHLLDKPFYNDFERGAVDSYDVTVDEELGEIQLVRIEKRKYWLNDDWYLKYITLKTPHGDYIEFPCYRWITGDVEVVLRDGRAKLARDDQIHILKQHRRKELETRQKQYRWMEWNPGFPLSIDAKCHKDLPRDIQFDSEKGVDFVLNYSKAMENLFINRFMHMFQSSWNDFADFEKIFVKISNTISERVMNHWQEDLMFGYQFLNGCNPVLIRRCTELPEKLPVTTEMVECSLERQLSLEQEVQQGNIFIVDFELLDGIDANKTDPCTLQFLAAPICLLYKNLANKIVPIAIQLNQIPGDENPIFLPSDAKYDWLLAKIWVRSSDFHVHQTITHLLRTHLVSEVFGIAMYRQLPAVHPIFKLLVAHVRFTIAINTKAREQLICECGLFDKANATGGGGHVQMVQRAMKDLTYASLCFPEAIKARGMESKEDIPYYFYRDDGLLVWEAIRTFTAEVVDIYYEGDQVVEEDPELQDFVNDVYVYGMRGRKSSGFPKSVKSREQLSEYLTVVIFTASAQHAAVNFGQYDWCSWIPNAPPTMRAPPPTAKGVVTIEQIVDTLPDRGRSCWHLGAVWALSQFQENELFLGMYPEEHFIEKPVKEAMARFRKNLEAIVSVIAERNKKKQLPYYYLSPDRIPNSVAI
# protocol_summary: Inhibition of 5-lipoxygenase: LTB4 formation in human granulocytes stimulated with calcium ionophore A 23187, ELISA
# conditions_used: read-out: IC50 5-LO
test_readout: IC50 (nM)
Respond numerically; units are nM and should not be typed.

So for CC1(C)Cc2c(-c3ccccc3)c(-c3ccc(Cl)cc3)c(CC(=O)O)n2C1 [ML 3000, reference compound] , the logged IC50 turned out to be 180

Item: CC1(C)Cn2cc(-c3ccc(Cl)cc3)c(-c3ccccc3)c2C1=O | IC50: 230
